Value source: patent US11701364B2

Biological target: STING (Stimulator of Interferon Genes) (Homo sapiens, UniProt Q86WV6, G230A/H232R/R293Q/R71H)
Construct: host or cells: THP-1-Lucia ISG cells (human monocytic line)
Sequence (Q86WV6 whole entry R71H/G230A/H232R/R293Q): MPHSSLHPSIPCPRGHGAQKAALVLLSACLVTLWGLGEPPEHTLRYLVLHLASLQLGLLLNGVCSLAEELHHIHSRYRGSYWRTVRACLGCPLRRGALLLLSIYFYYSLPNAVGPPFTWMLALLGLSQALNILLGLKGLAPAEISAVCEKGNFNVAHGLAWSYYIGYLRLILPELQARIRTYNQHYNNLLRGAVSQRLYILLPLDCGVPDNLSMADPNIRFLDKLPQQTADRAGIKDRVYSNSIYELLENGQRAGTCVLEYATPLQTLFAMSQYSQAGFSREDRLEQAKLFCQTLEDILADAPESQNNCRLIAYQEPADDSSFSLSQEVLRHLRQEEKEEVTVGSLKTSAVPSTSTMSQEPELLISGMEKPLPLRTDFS
Assay: ISG-LUC activation assay (ISRE-Luciferase assay in THP-1 Lucia ISG reporter cells)
Type: cell-based
Conditions: THP-1 Lucia ISG cells, 24 hours, luciferase reporter; read-out: ISG-LUC activation assay (EC50)
pEC50: −log10 of the molar value.
Assignment: determine reported pEC50 for the given molecules.

Some molecules with known pEC50 results, for comparison:
COC(=O)c1cc(OC)c(Cl)cc1NC(=O)c1ccc(-n2ccnc2)nn1; > 7.71
O=C(Nc1cc(Cl)nnc1C(=O)O)c1ccc(-n2ccnc2)nn1; < 4.30

Dear colleague, I am looking for the recorded pEC50 of the following molecule: "COC(=O)c1cccc(F)c1NC(=O)c1ccc(-n2ccnc2)nn1" < 4.30

---

Assignment: determine reported EC50 for the given compounds.
Target: STING (Stimulator of Interferon Genes) (Homo sapiens, UniProt Q86WV6, G230A/H232R/R293Q/R71H)
Construct: host or cells: THP-1-Lucia ISG cells (human monocytic line)
Test: ISG-LUC activation assay (ISRE-Luciferase assay in THP-1 Lucia ISG reporter cells)
Assay type: cell-based
Conditions: THP-1 Lucia ISG cells, 24 hours, luciferase reporter; read-out: ISG-LUC activation assay (EC50)
One number for each entry, in nM.

COC(=O)c1cc(C(F)(F)F)cc(F)c1NC(=O)c1ccc(-n2ccnc2)nn1 [Compound 48]; 475
O=c1oc(-c2ccc(-n3ccnc3)nn2)nc2c1COCC2 [Compound 168]; 11300
COC(=O)c1ccc(C)cc1NC(=O)c1ccc(-n2ccnc2)nn1 [Compound 15]; 294
COC(=O)c1cccc(Cl)c1NC(=O)c1ccc(-n2ccnc2)nn1 [Compound 96]; 21100
O=c1oc(-c2ccc(-n3ccnc3)nn2)nc2cc(Cl)c(Cl)cc12 [Compound 35]; 61.7

For each of the items listed, what is its EC50?
1. COC(=O)c1ccc(C#N)cc1NC(=O)c1ccc(-n2ccnc2)nn1 [Compound 12]
2. COC(=O)c1ccc(Cl)cc1NC(=O)c1ccc(-n2ccnc2)nn1 [Compound 17]
3. CC(C)COC(=O)c1ccccc1NC(=O)c1ccc(-n2ccnc2)nn1 [Compound 22]
4. CCOC(=O)C1=C(NC(=O)c2ccc(-n3ccnc3)nn2)COCC1 [Compound 129]
5. O=c1oc(-c2ccc(-n3ccnc3)nn2)nc2ccc(OC(F)(F)F)cc12 [Compound 41]
6. O=c1oc(-c2ccc(-n3ccnc3)nn2)nc2ccc(F)c(F)c12 [Compound 132]
7. O=c1oc(-c2ccc(-n3ccnc3)nn2)nc2cc(Cl)c(F)cc12 [Compound 36]

159
312
895
10700
176
4280
40.3

---

Biological target: STING (Stimulator of Interferon Genes) (Homo sapiens, UniProt Q86WV6, G230A/H232R/R293Q/R71H)
Construct: host or cells: THP-1-Lucia ISG cells (human monocytic line)
Test: ISG-LUC activation assay (ISRE-Luciferase assay in THP-1 Lucia ISG reporter cells)
Type: cell-based
Settings: THP-1 Lucia ISG cells, 24 hours, luciferase reporter; read-out: ISG-LUC activation assay (EC50)
Assignment: determine reported EC50 for the given molecules.

COC(=O)c1ccccc1NC(=O)c1ccc(-n2cnc(C#N)c2)nn1; ~5.26 µM

For each of the items listed, what is its EC50?
1. COC(=O)c1ncc(C(F)(F)F)cc1NC(=O)c1ccc(-n2ccnc2)nn1
2. Cc1cc(C(N)=O)c(NC(=O)c2ccc(-n3ccnc3)nn2)cc1F

1. ~1.27 µM
2. > 50 µM

---

Target: STING (Stimulator of Interferon Genes) (Homo sapiens, UniProt Q86WV6, G230A/H232R/R293Q/R71H)
Construct: host or cells: THP-1-Lucia ISG cells (human monocytic line)
Test: ISG-LUC activation assay (ISRE-Luciferase assay in THP-1 Lucia ISG reporter cells)
Type: cell-based
Details: THP-1 Lucia ISG cells, 24 hours, luciferase reporter; read-out: ISG-LUC activation assay (EC50)
pEC50: −log10 of the molar value.
observable: pEC50

Some compounds with known pEC50 results, for comparison:
O=c1oc(-c2ccc(-n3ccnc3)nn2)nc2ccc(C(F)(F)F)nc12; ~4.60
O=C(Nc1cc(Cl)c(F)cc1C(=O)O)c1ccc(-n2ccnc2)nn1; ~6.20

API: the following record is the query input.
Dear colleague, I am looking for the recorded pEC50 of the following compound: O=C(Nc1cc(F)c(F)cc1C(=O)NC1CCC(O)(C(F)(F)F)CC1)c1ccc(-n2ccnc2)nn1 (stereo not drawn) [Compound 87] < 4.70
